experimental.endpoint: pIC50
Please treat pIC50 as minus the base-10 logarithm of the molar concentration.

Task item: Value wanted: pIC50 (Procathepsin L (Homo sapiens)) of entry CCN(CC)C(=O)CSc1nnc([C@@H](N)Cc2c[nH]c3ccccc23)o1
Reply: 6.29

Task item: Value wanted: pIC50 (Procathepsin L (Homo sapiens)) of entry CN(C)C(=O)CSc1nnc([C@@H](N)Cc2c[nH]c3ccccc23)o1
Reply: 6.77

Task item: Value wanted: pIC50 (Procathepsin L (Homo sapiens)) of entry CCc1ccccc1NC(=O)CSc1nnc(C(N)Cc2c[nH]c3ccccc23)o1 (single isomer, unassigned)
Reply: 6.89

Task item: Value wanted: pIC50 (Procathepsin L (Homo sapiens)) of entry Cc1ccc(NC(=O)CSc2nnc(C(N)Cc3c[nH]c4ccccc34)o2)c(C)c1 (single isomer, unassigned)
Reply: 6.80

Task item: Value wanted: pIC50 (Procathepsin L (Homo sapiens)) of entry Cc1cccc(NC(=O)CSc2nnc(C(N)Cc3c[nH]c4ccccc34)o2)c1C (single isomer, unassigned)
Reply: 6.52
